Reference source: ChEMBL document CHEMBL6074662

tested on: Acinetobacter baumannii; assay: Antibacterial activity against carbapenem-resistant Acinetobacter baumannii CCARM 12005 incubated for 24 hrs by CLSI based broth microdilution method; assay type: functional
Record form. Attribute: MIC. Fill in for each entry.

The following substances have reported results that may help.
H-GVFRLKKWIQKVIKQWGK-NH2 : 4 µM
H-GVFRLKKWLKKVKKWGK-NH2 : 4 µM
H-GVFRLKKWIKKVIKKWGK-NH2 : 4 µM

// for each substance below, give its MIC
1. H-GVFRLKKWIQKVIRQWGR-NH2
2. H-HVFRLKKWIQKVIDQFGE-OH
3. H-GVFRLKKWIRKVIRRWGR-NH2

Found:
["4 µM", "4 µM", "8 µM"]

----------
assay: Hemolytic activity in sheep RBC at 256 uM incubated for 1 hr by absorbance based assay; format: toxicity, cell-based, Ovis aries, Erythrocyte; conditions: sheep red blood cells, read-out: Activity
Record form. Attribute: hemolysis at 1 h, 256 µM. Fill in for each entry.
Numbers only, in %.

H-GVFRLKKWIKKVIKKWGK-NH2 : 8.9

// for each substance below, give its hemolysis at 1 h, 256 µM
1. H-HVFRLKKWIQKVIDQFGE-OH
2. H-GVFRLKKWIQKVIKQWGK-NH2
3. H-GVFRLKKWLKKVKKWGK-NH2
4. H-GVFRLKKWIRKVIRRWGR-NH2
5. H-GVFRLKKWIQKVIRQWGR-NH2

Found:
[7.8, 12.2, 9.1, 20.4, 21.2]

----------
test system: Enterococcus faecium; assay: Antibacterial activity against vancomycin-resistant Enterococcus faecium ATCC 51559 incubated for 24 hrs by CLSI based broth microdilution method; format: functional
Record form. Attribute: MIC. Fill in for each entry.
Give bare numbers, in µM.

H-GVFRLKKWIQKVIRQWGR-NH2 : 8
H-GVFRLKKWLKKVKKWGK-NH2 : 8
H-GVFRLKKWIQKVIKQWGK-NH2 : 8
H-GVFRLKKWIRKVIRRWGR-NH2 : 4

// moving on: another record for MIC
Lookup: Recorded MIC for H-GVFRLKKWIKKVIKKWGK-NH2 , please?
Found: 8

----------
test system: Bacillus subtilis; assay: Antibacterial activity against Bacillus subtilis KCTC 3068 incubated for 24 hrs by CLSI based broth microdilution method; format: functional
Readout Type: MIC (µM)
Answers are plain numbers, in µM.

The following substances have reported results that may help.
H-GVFRLKKWIQKVIRQWGR-NH2 : 2
H-GVFRLKKWIQKVIKQWGK-NH2 : 4
H-GVFRLKKWIRKVIRRWGR-NH2 : 4
H-GVFRLKKWIKKVIKKWGK-NH2 : 4

// for each substance below, give its MIC
1. H-GVFRLKKWLKKVKKWGK-NH2
2. H-HVFRLKKWIQKVIDQFGE-OH

Found:
[4, 32]
